- System Name: M1 mAChR (Rattus norvegicus, UniProt P08482)
- Sequence (P08482 1-460): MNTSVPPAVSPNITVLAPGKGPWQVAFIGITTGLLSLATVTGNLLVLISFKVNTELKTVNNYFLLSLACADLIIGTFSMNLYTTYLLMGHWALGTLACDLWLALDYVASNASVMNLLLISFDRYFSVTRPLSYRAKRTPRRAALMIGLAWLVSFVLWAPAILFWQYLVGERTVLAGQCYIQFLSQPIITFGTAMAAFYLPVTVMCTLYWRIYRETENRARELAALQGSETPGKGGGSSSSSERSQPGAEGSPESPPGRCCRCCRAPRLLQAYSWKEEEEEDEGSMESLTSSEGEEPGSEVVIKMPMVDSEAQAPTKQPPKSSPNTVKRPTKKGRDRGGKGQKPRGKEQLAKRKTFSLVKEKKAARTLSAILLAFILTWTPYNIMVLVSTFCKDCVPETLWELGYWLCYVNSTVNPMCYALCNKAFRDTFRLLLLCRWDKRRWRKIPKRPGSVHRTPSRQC
- Condition: read-out: lower affinity binding site KL; [3H]PZ, rat cortical membranes
Reported Endpoint: pKi
The meaning of pKi here: minus log10 of the concentration in molar units.

Problem: Item under review: C[C@@H]1SC2(CCN(C)CC2)CN1C(=O)CCc1c[nH]c2ccccc12 (single isomer, unassigned) [AF710B] . Reported pKi?
Solution: 4.39

====

- System Name: M1 mAChR (Homo sapiens, UniProt P11229)
- Sequence (P11229 1-460): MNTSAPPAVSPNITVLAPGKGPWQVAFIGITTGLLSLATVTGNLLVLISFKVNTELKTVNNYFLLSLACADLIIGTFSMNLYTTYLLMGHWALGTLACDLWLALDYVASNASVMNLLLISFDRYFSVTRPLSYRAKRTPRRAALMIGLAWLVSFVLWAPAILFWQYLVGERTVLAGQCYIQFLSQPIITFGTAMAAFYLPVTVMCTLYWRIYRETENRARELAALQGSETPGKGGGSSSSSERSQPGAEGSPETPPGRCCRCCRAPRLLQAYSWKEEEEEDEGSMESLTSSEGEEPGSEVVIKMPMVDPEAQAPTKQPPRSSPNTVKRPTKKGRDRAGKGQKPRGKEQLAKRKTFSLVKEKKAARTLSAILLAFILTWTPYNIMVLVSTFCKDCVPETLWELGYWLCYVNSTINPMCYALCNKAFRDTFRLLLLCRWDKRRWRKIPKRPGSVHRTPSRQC
- Procedure Summary: Intracellular Ca2+ mobilization (Fluo-4 NW) in cells stably transfected with M1 mAChR
- Condition: read-out: Effects on M1 mAChR: antagonist, Kd
- Source text: On the day of experiment, cells were fully confluent. To evaluate selectivity for a subtype of mAChR, in particular the M1 mAChR vs. M3 and MS mAChR, the assays were calibrated using ligands that have a combined activity, e.g. M1 agonistic and M3 antagonistic or M1 agonistic and MS antagonistic profiles, respectively. This can eliminate effects due to different receptor reserves in cell-based assays.
Reported Endpoint: pKd
Remember the convention: pKd equals -log10 of concentration in molar.

// known answers, use as guide
CC1OC2(CCN(C)CC2)CN1C(=O)CCc1c[nH]c2ccccc12 (single isomer, unassigned) [AF711B] = 4.38
CCCC(CCC)C(=O)N1CC2(CCN(C)CC2)OC1C (stereo not shown) = 4.65
CC1SC2(CCN(C)CC2)CN1C(=O)/C=C/c1c[nH]c2ccccc12 (stereo not shown) = 5.06
CCCC(CCC)C(=O)N1CC(C)OC12CCN(C)CC2 (stereo not shown) = 3.95

Problem: // returns reported pKd for input CC1CN(S(=O)(=O)c2ccc(F)cc2)C2(CCN(C)CC2)O1 (stereo not shown)
Solution: 5.01

Problem: Now the compound CC1CN(C(=O)CCc2c[nH]c3ccccc23)C2(CCN(C)CC2)O1 (stereo not shown)
Solution: 4.40

Problem: Please give the result for CC1OC2(CCN(C)CC2)CN1S(=O)(=O)c1ccc(F)cc1 (stereo not shown) too.
Solution: 5.60

Problem: Here is the next compound: C[C@H]1SC2(CCN(C)CC2)CN1C(=O)CCc1c[nH]c2ccccc12 (single isomer, unassigned) [AF710A]
Solution: 4.51

Problem: CC1SC2(CCN(C)CC2)CN1C(=O)Cc1c[nH]c2ccccc12 (stereo not shown) ?
Solution: 4.07

Problem: What do you get for CC1SC2(CCN(C)CC2)CN1S(=O)(=O)c1ccc(F)cc1 (stereo not shown) ?
Solution: 5.11

Cited source: patent US9034891B2
